# Test Summary: In vivo pharmacokinetics in rats
# Design: species or system Male Wistar rats
# Experimental Conditions: male, Wistar, rat, plasma, sc, 200 ug/kg, T1/2, rat
Measurement Kind: half-life (h)
Give bare numbers, in h.

Form field half-life, entry CO[C@H]1O[C@H](COS(=O)(=O)O)[C@@H](O[C@@H]2O[C@@H](C(=O)O)[C@@H](O[C@H]3O[C@H](COS(=O)(=O)O)[C@@H](O[C@@H]4O[C@H](C(=O)O)[C@@H](O[C@H]5O[C@H](COS(=O)(=O)O)[C@@H](O)[C@H](O)[C@H]5NS(=O)(=O)O)[C@H](O)[C@H]4O)[C@H](OS(=O)(=O)O)[C@H]3NS(=O)(=O)O)[C@H](O)[C@H]2OS(=O)(=O)O)[C@H](O)[C@H]1NS(=O)(=O)O : 1.47
